Cited source: ChEMBL document CHEMBL4346667

ASSAY METHOD TEXT: Binding affinity to alpha/beta tubulin complex (unknown origin)
Set-up: species or system Homo sapiens
ENDPOINT LABEL: pKi
One number for each entry, as −log10 of the molar value.

COc1cc([C@@H]2c3cc4c(cc3[C@H](O)[C@H]3COC(=O)[C@H]23)OCO4)cc(OC)c1OC [PODOFILOX]	6.57
COc1cc([C@@H]2c3cc4c(cc3[C@@H](Nc3ccc5cn[nH]c5c3)[C@H]3COC(=O)[C@H]23)OCO4)cc(OC)c1OC	7.52
COc1cc([C@@H]2c3cc4c(cc3[C@@H](Nc3cccc5ncccc35)[C@H]3COC(=O)[C@H]23)OCO4)cc(OC)c1OC	7.22

Then there is this compound:
Exercise: I would be grateful if you could share the reported pKi for COc1cc2c(c(OC)c1OC)-c1ccc(OC)c(=O)cc1[C@@H](NC(C)=O)CC2 [COLCHICINE] .
Key: 6.96
